Biological target: TAK1-TAB1 fusion protein (Homo sapiens)
Sequence (O43318 with tags, fused parts or gaps limits assumed): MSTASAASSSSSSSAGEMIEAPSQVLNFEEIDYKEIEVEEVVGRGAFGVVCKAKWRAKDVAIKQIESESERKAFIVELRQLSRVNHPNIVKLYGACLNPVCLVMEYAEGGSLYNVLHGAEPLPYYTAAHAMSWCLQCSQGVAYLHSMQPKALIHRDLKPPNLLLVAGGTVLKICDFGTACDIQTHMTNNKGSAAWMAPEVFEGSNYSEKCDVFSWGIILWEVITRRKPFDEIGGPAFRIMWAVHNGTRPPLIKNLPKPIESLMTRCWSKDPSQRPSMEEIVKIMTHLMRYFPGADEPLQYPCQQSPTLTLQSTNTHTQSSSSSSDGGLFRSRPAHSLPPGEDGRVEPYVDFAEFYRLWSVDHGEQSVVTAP
Test: In vitro TAK1 kinase assay (33P-ATP, casein substrate)
Settings: semi-quantitative score, at least two independent experiments
Items are presented alongside their recorded IC50.

Examples with answers:
molecule: O=C(Nc1ccccc1)c1ccc(Nc2ccc(-c3ccc4c(c3)CNC4=O)n3ccnc23)cc1 [Compound 17]
IC50: 1 to 3 µM
--
molecule: CC(=O)N(C)C1CCN(C(=O)c2ccc(Nc3ccc(-c4ccc5c(c4)CNC5=O)n4ccnc34)cc2)C1 (stereo not drawn) [Compound 42]
IC50: 0.101 to 1 µM
--
molecule: CC(C)N1CCN(c2ccc(Nc3ccc(-c4cc[nH]c(=O)c4)n4ccnc34)cc2Cl)CC1 [Compound 105]
IC50: 0.101 to 1 µM
--
molecule: c1cn2c(-c3cn[nH]c3)ccc(Nc3ccc(N4CCOCC4)cc3)c2n1 [Compound 2]
IC50: 0.101 to 1 µM
--
molecule: CC(C)N1CCN(C(=O)c2ccc(Nc3ccc(-c4ccc5c(c4)CNC5=O)n4ccnc34)cc2)CC1 [Compound 48]
IC50: < 0.1 µM

Write down the reported IC50 of CC(C)N1CCN(c2ccc(Nc3ccc(-c4ccc(C(N)=O)cc4)n4ccnc34)cc2)CC1 [Compound 10] , test system: TAK1-TAB1 fusion protein (Homo sapiens).
0.101 to 1 µM

What would you report for CC(C)N1CCN(c2ccc(Nc3ccc(-c4cccc5[nH]ccc45)n4ccnc34)cc2)CC1 [Compound 75] ?
0.101 to 1 µM

Same for O=C1NCc2cc(-c3ccc(Nc4ccc(S(=O)(=O)N5CCOCC5)cc4)c4nccn34)ccc21 [Compound 16]
0.101 to 1 µM

Quick one: CC(C)N1CCN(c2ccc(Nc3ccc(-c4cc[nH]c(=O)c4)n4ccnc34)cc2C(F)(F)F)CC1 [Compound 106]
> 3 µM

Quick one: CC(C)N1CCN(c2ccc(Nc3ccc(-c4cccc(O)c4)n4ccnc34)cc2)CC1 [Compound 94]
> 3 µM

Try this molecule too: CN(C)CCNC(=O)c1ccc(Nc2ccc(-c3ccc4c(c3)CNC4=O)n3ccnc23)cc1 [Compound 36]
0.101 to 1 µM

What do you have for NC(=O)c1ccc(-c2ccc(Nc3ccc(N4CCOCC4)cc3)c3nccn23)cc1 [Compound 1] ?
1 to 3 µM

Same lookup for CS(=O)(=O)c1ccc(Nc2ccc(-c3ccc(C(N)=O)c(F)c3)n3ccnc23)cc1 [Compound 72] , please.
1 to 3 µM

Another molecule: CS(=O)(=O)c1ccc(Nc2ccc(-c3cn[nH]c3)n3ccnc23)cc1 [Compound 71]
0.101 to 1 µM

Now consider CN(C)C(=O)c1ccc(Nc2ccc(-c3ccc4c(c3)CNC4=O)n3ccnc23)cc1 [Compound 14] .
0.101 to 1 µM

Next entry: CC(C)N1CCC(c2ccc(Nc3ccc(-c4cc[nH]c(=O)c4)n4ccnc34)cc2)CC1 [Compound 96]
0.101 to 1 µM

Next molecule: CC1CCN(C2CCN(c3ccc(Nc4ccc(-c5cc[nH]c(=O)c5)n5ccnc45)cc3)CC2)CC1 [Compound 121]
0.101 to 1 µM

Now the same for NC(=O)c1ccc(-c2ccc(Nc3ccc(N4CCOCC4)c(F)c3)c3nccn23)cc1F [Compound 67]
> 3 µM
